- measured target: T1, CBX8 chromodomain (residues 8-61) (UniProt Q9HC52 8-61)
- T1 construct: CBX8 chromodomain, residues 8-61; Uniformly 15N-labelled for the NMR titrations; The methods name two chromodomain constructs (Addgene 62514 and GST-CBX8 8-61 in pGSTag); the purification that is described is that of the GST fusion cleaved with TEV; also called CD; CBX8 CD; source: E. coli BL21 (DE3), purified (glutathione agarose, TEV cleavage, cation exchange, Superdex 75)
- T1 sequence (looked up): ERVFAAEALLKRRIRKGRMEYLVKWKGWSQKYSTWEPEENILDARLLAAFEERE
- assay remarks: NMR titration; 1H-15N HSQC of 0.05-0.10 mM 15N-CBX8 CD with increasing molar ratios of unlabelled histone peptide; 25 °C; 100 mM NaCl, 40 mM phosphate pH 6.8; CSPs fit to a single-site model with ligand depletion, global Kd as the average over perturbed resonances
- applied conditions: both partners purified
Ends that are not written are not given here. trimethyl = trimethyl-lysine
attribute measured: pKd
Numbers only, as −log10 of the molar value.

Inquiry: Give a short answer stating reported pKd for KAARK(trimethyl)SAPATGG [H3K27me3 (23-34) histone peptide] .
Reply text: 3.15
